Please go through the items and note down their logP.
// return just the number, without any unit appended

Input: What logP value was documented for this compound, `CNC(=O)Oc1ccccc1C` ?
Output: 1.46

Input: Looking for the measured logP of `CNC(=O)Oc1ccc(Cl)c(C)c1` , can you help?
Output: 2.57

Input: Please look up its logP: `CNC(=O)Oc1ccc(S(C)(=O)=O)cc1`
Output: 0.34

Input: Tell me the measured logP of `CCCCOc1ccc(OC(=O)NC)cc1` , please.
Output: 2.86

Input: Need logP, item `CCCc1ccccc1OC(=O)NC`
Output: 2.4

Input: Consider the compound `CNC(=O)Oc1cccc(Br)c1` and give its measured logP.
Output: 2.25

Input: State the recorded logP for this entry: `CNC(=O)Oc1ccc(Cl)cc1`
Output: 2.01

Input: Looking for the measured logP of `CNC(=O)Oc1ccccc1C(C)(C)C` , can you help?
Output: 2.65

Input: // returns reported logP for input `CNC(=O)Oc1cccc(C(F)(F)F)c1`
Output: 2.37

Input: So what's the measured logP for this one? `CCC(=O)c1ccc(OC(=O)NC)cc1`
Output: 1.55

Input: Look up logP for this compound: `CNC(=O)Oc1ccccc1Br`
Output: 1.77

Input: # query: logP of entry `CNC(=O)Oc1cccc(C=O)c1`
Output: 0.92

Input: So what's the measured logP for this one? `CNC(=O)Oc1ccc(Cl)c(Cl)c1`
Output: 2.8

Input: If you can, please state the reported logP value of `CNC(=O)Oc1ccc(SC)c(C)c1` .
Output: 2.47

Input: Any idea what its logP is? The compound is `CNC(=O)Oc1cccc(C(C)C)c1`
Output: 2.63

Input: So what's the measured logP for this one? `CNC(=O)Oc1cccc(Cl)c1`
Output: 2.03

Input: // logP lookup, key: `CNC(=O)Oc1ccc(C=O)cc1`
Output: 0.99

Input: Quick one: logP of `CNC(=O)Oc1ccc(Br)cc1` ?
Output: 2.17

Input: # get_value(readout='logP', item= `CNC(=O)Oc1ccc(SC)cc1` )
Output: 1.92

Input: Look at this compound and give its reported logP. `CNC(=O)Oc1ccc(C#N)cc1`
Output: 0.95

Input: Requested read-out: logP. Entry: `CNC(=O)Oc1cccc2ccccc12`
Output: 2.36

Input: Data request, read-out logP, for `CCCCOc1cccc(OC(=O)NC)c1`
Output: 2.96

Input: Name the recorded logP for `CNC(=O)Oc1cc(C)cc(C(C)C)c1` .
Output: 3.1

Input: Please give the measured logP for this compound: `CCc1ccccc1OC(=O)NC`
Output: 1.93

Input: Which value of logP has been reported for `CNC(=O)Oc1cccc(C(C)(C)C)c1` in the records?
Output: 2.93

Input: For the compound shown here, `CNC(=O)Oc1cc(C)ccc1C(C)C` , give the reported logP.
Output: 2.84

Input: I'd like to know its logP. The compound in question is `CCCc1cccc(OC(=O)NC)c1`
Output: 2.64

Input: Looking for the measured logP of `CNC(=O)Oc1cc(C)ccc1C(C)(C)C` , can you help?
Output: 3.14

Input: May I ask what logP has been recorded for `CNC(=O)Oc1ccccc1F` ?
Output: 1.25

Input: Reported logP, compound `CNC(=O)Oc1ccccc1OC` : ____
Output: 0.81

Input: Recorded logP for `CNC(=O)Oc1ccc(C(=O)OC)cc1` , please?
Output: 1.5

Input: Name the recorded logP for `CNC(=O)Oc1cccc(F)c1` .
Output: 1.48

Input: Can you look up the measured logP of `CNC(=O)Oc1ccc([N+](=O)[O-])cc1` for me?
Output: 1.47

Input: Item `CNC(=O)Oc1ccc(C(C)=O)cc1` has what recorded logP?
Output: 1.01

Input: Look up logP for this compound: CCC(C)c1ccc(OC(=O)NC)cc1 (stereo unspecified)
Output: 3.2

Input: Name the reported logP value associated with the compound `CNC(=O)Oc1cc(C)ccc1C`
Output: 2.03

Input: Give its logP value. Item: `CNC(=O)Oc1ccc(C(C)(C)C)c(C)c1`
Output: 3.38

Input: So what's the measured logP for this one? `CNC(=O)Oc1ccccc1C(C)C`
Output: 2.31

Input: Would you mind telling me what logP value was observed for `CNC(=O)Oc1ccccc1Cl` ?
Output: 1.64

Input: Could you share which logP value was measured for `CNC(=O)Oc1cccc(OC(C)C)c1` ?
Output: 1.96

Input: Could you tell me which logP is on file for `CNC(=O)Oc1cc(C)cc(C(C)(C)C)c1` ?
Output: 3.35

Input: logP lookup needed for `CNC(=O)Oc1cccc(C(=O)OC)c1` , thanks.
Output: 1.42

Input: For the compound shown here, `CNC(=O)Oc1ccc(C(C)(C)C)cc1` , give the reported logP.
Output: 3.06

Input: Dear colleague, I am looking for the recorded logP of the following compound: `CNC(=O)Oc1ccccc1C#N`
Output: 0.86

Input: Reported logP for `CNC(=O)Oc1ccccc1[N+](=O)[O-]` : what is it?
Output: 1.02

Input: Look up logP for this compound: `CNC(=O)Oc1ccccc1I`
Output: 1.96

Input: For `CNC(=O)Oc1ccc2ccccc2c1` , what is its reported logP?
Output: 2.56

Input: What value of logP has been recorded for this entry: `CCOc1ccccc1OC(=O)NC`
Output: 1.24

Input: I would be grateful if you could share the reported logP for `CCCc1ccc(OC(=O)NC)cc1` .
Output: 2.72

Input: logP for `CNC(=O)Oc1cc(Cl)cc(Cl)c1` ?
Output: 3.03

Input: // returns reported logP for input `CNC(=O)Oc1cccc(C)c1C`
Output: 1.95
